Consider the following binders and their measured Kd readings.
Target: MAGE-A1 Dextramer (human)
Experiment: KD-SPR estimated from Dextramer staining MFI by the linear formula of Figure 6; not measured by SPR
Give the figure together with its unit, number first.

binder: A1A2-M01-625 (TCR, V domains shown) Valpha: GEDVEQSLFLSVREGDSSVINCTYTDSSMTYLYWYKQEPGAGLQLLTYIFAFESMKQDQRLTVLLNKKDKHLSLRIADTQTGDSAIYFCAGSGGGTDKLIFGTGTRLQVFP Vbeta: GAVVSQHPSWVICKSGTSVKIECRSLDFEATTMFWYRQFPKQSLMLMATTDYGSKATYEQGVEKDKFLINHASLTLSTLTVTSAHPEDSSFYICSAREPGQGPWEQYFGPGTRLTVT
Kd: 0.0222 nM

What value of Kd has been recorded for this entry: A1A2-M01-612 (TCR, V domains shown) Valpha: GEDVEQSLFLSVREGDSSVINCTYVDPYSTYLYWYKQEPGAGLQLLTYIFSFMDMKQDQRLTVLLNKKDKHLSLRIADTQTGDSAIYFCAGSGGGTDKLIFGTGTRLQVFP Vbeta: GAVVSQHPSWVICKSGTSVKIECRSLDFEATTMFWYRQFPKQSLMLMATSNEGSKATYEQGVEKDKFLINHASLTLSTLTVTSAHPEDSSFYICSAREPWDPWYEQYFGPGTRLTVT 0.00294 nM
